- System: Tribolium castaneum
- run conditions: 5 microlitre; Day 4

molecule: CC(C)CC=O
% Mortality Day 4: 100.0%

molecule: CCC(C)CO (centres unmarked)
% Mortality Day 4: 80.0%

molecule: CCC(O)CC
% Mortality Day 4: 100.0%

molecule: CC=O
% Mortality Day 4: 36.0%

molecule: O=Cc1ccccc1
% Mortality Day 4: 0.0%

molecule: C1=CCCCC=C1
% Mortality Day 4: 27.5%

molecule: CC1=CCC=CC1
% Mortality Day 4: 0.0%

molecule: C1=CC2(C=C1)CC2 [Spiro[2.4]hepta-4,6-diene]
% Mortality Day 4: 100.0%

molecule: CC(=O)C(C)O (centres unmarked)
% Mortality Day 4: 100.0%

molecule: CC1CC=CCC1 (centres unmarked)
% Mortality Day 4: 17.7%

molecule: CC(=O)CCO [4-Hydroxy-2-butanone]
% Mortality Day 4: 4.0%

molecule: C=C1CCCCC1
% Mortality Day 4: 16.0%

molecule: CCCC(C)O (centres unmarked)
% Mortality Day 4: 0.0%

molecule: CCCC(=O)O
% Mortality Day 4: 6.9%
